Measured values drawn from ChEMBL document CHEMBL4602692 for this set.

# ASSAY SYSTEM: 5-hydroxytryptamine receptor 2A (Mus musculus, UniProt P35363)
# Sequence (P35363 whole entry): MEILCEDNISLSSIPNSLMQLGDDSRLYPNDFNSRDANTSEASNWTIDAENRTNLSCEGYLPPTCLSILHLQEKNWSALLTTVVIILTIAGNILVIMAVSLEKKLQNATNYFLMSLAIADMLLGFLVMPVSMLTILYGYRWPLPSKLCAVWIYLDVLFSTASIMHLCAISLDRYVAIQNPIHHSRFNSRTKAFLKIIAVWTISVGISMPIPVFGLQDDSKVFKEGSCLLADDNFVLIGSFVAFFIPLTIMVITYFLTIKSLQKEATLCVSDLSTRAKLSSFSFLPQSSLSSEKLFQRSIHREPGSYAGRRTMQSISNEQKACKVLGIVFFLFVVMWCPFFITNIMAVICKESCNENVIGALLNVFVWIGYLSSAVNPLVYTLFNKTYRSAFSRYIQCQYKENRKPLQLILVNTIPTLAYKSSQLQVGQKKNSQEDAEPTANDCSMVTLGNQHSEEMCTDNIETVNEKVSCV
# TEST: Agonist activity at mouse 5-HT2A receptor expressed in Flp-In T-REx 293 cells assessed as induction of Gq-mediated calcium flux incubated for 1 hr by Flou4-AM dye based FLIPR assay
EC50: recorded values
Kindly provide the numeric value in nM only, without the unit symbol.

                  molecule                              assay_system  data_value
0  CNCCc1c[nH]c2cccc(O)c12  5-hydroxytryptamine receptor 2A (Mus musculus, UniProt P35363)          19

Turning to the following molecule.
Give EC50 for this entry on 5-hydroxytryptamine receptor 2A (Mus musculus, UniProt P35363): CN(C)CCc1c[nH]c2cccc(O)c12 [PSILOCIN]
9.9
